Tgt: hIBAT (Homo sapiens)
Construct: kept under Puromycin selection
Sequence (Q12908 whole entry): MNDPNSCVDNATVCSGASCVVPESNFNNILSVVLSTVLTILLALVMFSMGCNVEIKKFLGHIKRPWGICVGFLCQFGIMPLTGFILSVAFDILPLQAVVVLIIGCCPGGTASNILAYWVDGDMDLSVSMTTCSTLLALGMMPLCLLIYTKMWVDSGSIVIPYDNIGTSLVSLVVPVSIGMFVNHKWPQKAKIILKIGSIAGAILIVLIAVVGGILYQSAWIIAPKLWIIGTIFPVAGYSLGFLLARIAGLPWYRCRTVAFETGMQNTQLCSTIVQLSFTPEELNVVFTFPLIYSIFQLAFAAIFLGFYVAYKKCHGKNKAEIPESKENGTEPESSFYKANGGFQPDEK
Assay procedure: IBAT (h/m) assay: 3H-taurocholic acid uptake in human IBAT-overexpressing cells
Measurement conditions: 0.25 μM 3H-taurocholic acid + 5 μM cold taurocholic acid, 20 minutes at 37° C., highest test concentration 10 μM

{"Compound": "CCCCC1CN(c2ccccc2)c2cc(OC)c(CSCC(=O)O)cc2S(=O)(=O)N1C (racemic) [Example 35]", "IC50 / nM": 3110}
{"Compound": "CCCCC1(CC)CN(c2ccccc2)c2cc(SC)c(CSCC(=O)O)cc2S(=O)(=O)C1 (single isomer, unassigned) [2, enantiomer 1]", "IC50 / nM": 0.2}
{"Compound": "CCCCC1(CC)CN(c2ccccc2)c2cc(SC)c(CSCC(=O)O)cc2S(=O)(=O)C1 (single isomer, unassigned) [2, enantiomer 2]", "IC50 / nM": 2.8}
{"Compound": "CCCCC1(CC)CN(c2ccc(F)cc2)c2cc(OC)c(CSCC(=O)O)cc2S(=O)(=O)C1 (single isomer, unassigned) [40, enantiomer 1]", "IC50 / nM": 1.4}
{"Compound": "CCCCC1(C)CN(c2ccccc2)c2cc(SC)c(CSCC(=O)O)cc2S(=O)(=O)C1 (racemic) [Example 4]", "IC50 / nM": 0.8}
{"Compound": "CCCCC1(CC)CN(c2ccccc2)c2cc(SC)c(CSCC(=O)O)cc2S(=O)(=O)N1 (single isomer, unassigned) [10, enantiomer 2]", "IC50 / nM": 1.7}
